Biological target: Btk (Homo sapiens (Human), UniProt Q06187)
Sequence (Q06187 whole entry, species assumed): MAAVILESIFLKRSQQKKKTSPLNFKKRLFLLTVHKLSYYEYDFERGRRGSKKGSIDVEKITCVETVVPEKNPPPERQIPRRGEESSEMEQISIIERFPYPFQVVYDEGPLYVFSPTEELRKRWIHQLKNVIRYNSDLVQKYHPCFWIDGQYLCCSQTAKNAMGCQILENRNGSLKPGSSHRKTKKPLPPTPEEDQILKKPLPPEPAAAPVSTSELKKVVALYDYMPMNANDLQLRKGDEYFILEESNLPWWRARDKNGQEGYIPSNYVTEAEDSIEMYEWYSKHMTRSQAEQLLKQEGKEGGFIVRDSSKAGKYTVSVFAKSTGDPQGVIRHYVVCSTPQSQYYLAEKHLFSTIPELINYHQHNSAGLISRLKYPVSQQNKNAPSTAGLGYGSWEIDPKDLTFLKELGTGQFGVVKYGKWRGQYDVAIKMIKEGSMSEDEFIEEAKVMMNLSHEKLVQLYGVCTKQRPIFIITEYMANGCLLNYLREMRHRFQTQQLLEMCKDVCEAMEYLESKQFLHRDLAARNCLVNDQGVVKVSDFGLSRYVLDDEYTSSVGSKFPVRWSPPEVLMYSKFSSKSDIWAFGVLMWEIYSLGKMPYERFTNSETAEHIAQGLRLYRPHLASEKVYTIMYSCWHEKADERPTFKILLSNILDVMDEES
Assay: Btk kinase assay, method A (33P-ATP radiometric)
Assay type: biochemical
Settings: 10 μM ATP
reportedEndpoint: IC50 (nM)
Answer in nM, number only, no unit symbol.

I am curious: what IC50 value has been reported for CCOc1cc2ncc(C#N)c(Nc3ccc(Oc4ccccc4)cc3)c2cc1NC(=O)/C=C/CN(C)C ? 0.64
